TARGET_OR_TEST_SYSTEM: T1, recombinant biotinylated human PAR2 extracellular domain (residues 1-75), N-terminal AviTag, C-terminal Flag … (human, UniProt P55085 26-75, biotin on the AviTag (enzymatic biotinylation))
T1 construct: also called Bio-human-PAR2 ECD; human PAR2 ECD; not shown: N-terminal AviTag (Avidity LLC); C-terminal Flag and poly Histidine tags
T1 sequence (P55085 26-75): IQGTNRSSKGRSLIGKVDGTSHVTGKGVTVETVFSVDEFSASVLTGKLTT
TEST_DESCRIPTION: Biacore SPR 25 C, pH 7.4
Listed below: Kd values for each entry.
Express it in pM; write the number only.

Past entries and their recorded results:
# BINDER, UNIT_SYMBOL, Kd
records = [
    ("PaB670120 Fab (Fab, V domains shown, Fab; also called ZZ1RUC-C11) VH: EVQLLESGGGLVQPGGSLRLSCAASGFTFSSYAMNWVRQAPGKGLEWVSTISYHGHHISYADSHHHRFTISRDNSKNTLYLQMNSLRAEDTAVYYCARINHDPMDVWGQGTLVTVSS VL: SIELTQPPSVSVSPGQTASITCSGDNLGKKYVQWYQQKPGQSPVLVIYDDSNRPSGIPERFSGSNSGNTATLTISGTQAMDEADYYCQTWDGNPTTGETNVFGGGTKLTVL", "pM", 247),
    ("PaB670084 Fab (Fab, V domains shown, Fab; also called ZZ1PXA-A05) VH: EVQLLESGGGLVQPGGSLRLSCAASGFTFSSYAMNWVRQAPGKGLEWVSTISHSGHLIHHADSHKGRFTISRDNSKNTLYLQMNSLRAEDTAVYYCARINNDPMDVWGQGTLVTVSS VL: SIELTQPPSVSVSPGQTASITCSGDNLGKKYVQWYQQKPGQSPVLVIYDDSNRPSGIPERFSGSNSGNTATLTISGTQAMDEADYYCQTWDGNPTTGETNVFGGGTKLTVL", "pM", 250),
]

Lab note: next binder to report on.
[in] Give its Kd value. Item: PaB670076 Fab (Fab, V domains shown, Fab; also called ZZ1NHH-F09) VH: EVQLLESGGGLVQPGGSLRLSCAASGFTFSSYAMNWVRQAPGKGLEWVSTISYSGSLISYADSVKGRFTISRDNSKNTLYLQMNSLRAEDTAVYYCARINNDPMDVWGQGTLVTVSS VL: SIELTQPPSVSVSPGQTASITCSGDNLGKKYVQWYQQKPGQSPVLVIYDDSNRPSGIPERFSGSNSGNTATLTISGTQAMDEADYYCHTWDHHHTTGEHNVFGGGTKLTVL
[out] 207
